Recorded values, source patent US20250186627A1.

- Tested on: NRG-mice bearing LNCaP tumors
- experimentDescription: Biodistribution (and PET/SPECT imaging) in NRG-mice bearing LNCaP tumors
- Type: in vivo
- protocolConditions: 72 h p.i., Avg
*1 amine or outer side, *2 acyl side, *3 side chain or, on linkers, in order; H or OH if unused. Where a SMILES comes first, the peptide text is derived from it. [ ]: non-standard residue; d: D form. The star is where a group is joined. ξ: configuration not given here. ξLys(Nα-CO-ξAad) = O=C(O)CCCC(NC(=O)NC(CCCCN*)C(=O)O)C(=O)O; Butanoyl(4-(4-NO2Ph)) = O=C(CCCc1ccc([N+](=O)[O-])cc1)*; DOTA = O=C(O)CN1CCN(CC(=O)O)CCN(CC(=O)*)CCN(CC(=O)O)CC1; Butanoyl(4-(4-MeO-phenyl)) = COc1ccc(CCCC(=O)*)cc1; ξAla(9-anthryl) = NC(Cc1c2ccccc2cc2ccccc12)C(=O)O; X2 = O=C(NC(CCCCN*)C(=O)O)NC(CC(F)C(=O)O)C(=O)O; X1 = O=C(C1CCC(CN[*:1])CC1)[*:2]; ξK = NCCCCC(N)C(=O)O
measure: Biodistribution: Liver (% ID/g)
Only the number, expressed in % ID/g, is required.

Quick one: Biodistribution: Liver of O=C([O-])CN1CCN(CC(=O)[O-])CCN(CC(=O)NCCCCC(NC(=O)CNC(=O)CCCc2ccc([N+](=O)[O-])cc2)C(=O)NCC(=O)NCC2CCC(C(=O)NC(Cc3c4ccccc4cc4ccccc34)C(=O)NCCCCC(NC(=O)NC(CCCC(=O)O)C(=O)O)C(=O)O)CC2)CCN(CC(=O)[O-])CC1.[177Lu+3] (centres unmarked) [^177Lu-CCZ02017] ({Butanoyl(4-(4-NO2Ph))}-G[ξK](DOTA)G[X1][ξAla(9-anthryl)]-{ξLys(Nα-CO-ξAad)}) ? 0.23

More entries:
What does the record list as Biodistribution: Liver for COc1ccc(CCCC(=O)NCC(=O)NC(CCCCNC(=O)CN2CCN(CC(=O)[O-])CCN(CC(=O)[O-])CCN(CC(=O)[O-])CC2)C(=O)NCC(=O)NCC2CCC(C(=O)NC(Cc3c4ccccc4cc4ccccc34)C(=O)NCCCCC(NC(=O)NC(CC(F)C(=O)O)C(=O)O)C(=O)O)CC2)cc1.[177Lu+3] (centres unmarked) [^177Lu-CCZ02008] ({Butanoyl(4-(4-MeO-phenyl))}-G[ξK](DOTA)G[X1][ξAla(9-anthryl)]-X2) ? 0.47

So what's the measured Biodistribution: Liver for this one? COc1ccc(CCCC(=O)NCC(=O)NC(CCCCNC(=O)CN2CCN(CC(=O)[O-])CCN(CC(=O)[O-])CCN(CC(=O)[O-])CC2)C(=O)NCC2CCC(C(=O)NC(Cc3c4ccccc4cc4ccccc34)C(=O)NCCCCC(NC(=O)NC(CCCC(=O)O)C(=O)O)C(=O)O)CC2)cc1.[177Lu+3] (centres unmarked) [^177Lu-HTK03170, reference compound] 0.27

// Biodistribution: Liver lookup, key: COc1ccc(CCCC(=O)NCC(=O)NC(CCCCNC(=O)CN2CCN(CC(=O)[O-])CCN(CC(=O)[O-])CCN(CC(=O)[O-])CC2)CC(=O)NCC2CCC(C(=O)NC(Cc3c4ccccc4cc4ccccc34)C(=O)NCCCCC(NC(=O)NC(CC(F)C(=O)O)C(=O)O)C(=O)O)CC2)cc1.[177Lu+3] (centres unmarked) [^177Lu-CCZ02019] 0.29

For O=C([O-])CN1CCN(CC(=O)[O-])CCN(CC(=O)NCCCCC(NC(=O)CNC(=O)CCCc2ccc([N+](=O)[O-])cc2)C(=O)NCC(=O)NCC2CCC(C(=O)NC(Cc3c4ccccc4cc4ccccc34)C(=O)NCCCCC(NC(=O)NC(CCCC(=O)O)C(=O)O)C(=O)O)CC2)CCN(CC(=O)[O-])CC1.[225Ac+3] (centres unmarked) [^225Ac-CCZ02017] ({Butanoyl(4-(4-NO2Ph))}-G[ξK](DOTA)G[X1][ξAla(9-anthryl)]-{ξLys(Nα-CO-ξAad)}) , what is its reported Biodistribution: Liver? 0.51
